- SYSTEM: Fibroblast growth factor 2 (Homo sapiens) (UniProt P09038)
- Sequence (P09038 whole entry, looked up): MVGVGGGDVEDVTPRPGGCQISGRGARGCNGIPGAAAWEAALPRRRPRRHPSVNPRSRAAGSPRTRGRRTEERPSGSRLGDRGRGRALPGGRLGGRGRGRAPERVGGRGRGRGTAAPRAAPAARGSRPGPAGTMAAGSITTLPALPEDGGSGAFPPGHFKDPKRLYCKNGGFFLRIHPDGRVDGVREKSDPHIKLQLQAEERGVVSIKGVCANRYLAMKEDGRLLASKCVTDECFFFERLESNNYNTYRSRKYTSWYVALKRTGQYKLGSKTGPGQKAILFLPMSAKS
- ASSAY COMMENT: FGF2 binders on small-molecule microarrays, primary screen, biochemical, small-molecule microarray, 635/667 nm fluorescence (AID 1133)
- MEASUREMENT CONTEXT: small-molecule microarray binding, FGF2, fluorescence 635/667; higher = more signal
Range-based classes on measured composite z-score: A = under -0.3, B = from -0.3 up to 0.7, C = 0.7 and over

The following molecules have reported results that may help.
Task: Which band does CN(C)CCCCNC(=O)[C@H]1C[C@H]2C(=O)N3CCC[C@H]3C(=O)N2[C@H]1c1ccc(O)cc1 fall in?
Result: A

Task: Sort into band: COCCOC(=O)N1C(=O)[C@@]2(c3cc(C#CC4(O)CCCCCC4)ccc31)[C@H](C(=O)N1CCCCCCC1)[C@H]1C(=O)O[C@H](c3ccccc3)[C@H](c3ccccc3)N1[C@@H]2c1ccc(OCCO)cc1
Result: C

Task: Field: class (composite z-score) — entry: CCCCN1CC=CC23O[C@@H]4C=CCOC(=O)[C@@H]4[C@H]2C(=O)N(CCCO)[C@@H]3C1=O (stereo partly specified)
Result: A

Task: Category lookup for the molecule C=CC[C@@H](OC(=O)Nc1ccc(OC)cc1)c1ccc(OCCO)cc1
Result: A

Task: Into which bin does this molecule go? [N-]=[N+]=NCc1ccccc1[C@H]1OC(c2ccc(OCCCO)cc2)=N[C@@]1(CCS(=O)(=O)c1ccccc1)C(N)=O
Result: C

Task: Which composite z-score category applies to CC(C)(C)OC(=O)CC[C@]1(C(=O)NCCN2CCOCC2)N=C(c2ccc(OCCCO)cc2)O[C@H]1c1ccccc1N=[N+]=[N-] here?
Result: B

Task: Each molecule maps to one class by composite z-score. Which class for CCOC(=O)C[C@H]1[C@H](OC(=O)c2ccccc2-c2ccccc2)[C@@H](NC(=O)c2ccc3ccccc3n2)c2cc(OCCCO)ccc2N1C(=O)c1ccc2ccccc2n1 ?
Result: B

Task: Using the reported composite z-score, which band applies to CCCC=C(CCC)[C@@H](NP(=O)(c1ccccc1)c1ccccc1)c1ccc(C(F)(F)F)cc1 ?
Result: B

Task: Class label required: [N-]=[N+]=Nc1ccccc1C[C@]1(C(=O)NCc2ccccc2)N=C(c2ccc(OCCCO)cc2)O[C@H]1c1ccccc1
Result: B

Task: Where would COC(=O)C1(Cc2ccccc2)C=C2C(=C(C(C)C)C(=O)C2C)CN1 (stereo unspecified) land among the classes by reported composite z-score?
Result: A

New cases:
Task: Which band does CCOC(=O)C[C@H]1[C@H](OC(=O)c2ccc(-c3ccccc3)cc2)[C@@H](NC(=O)C2CCCCC2)c2cc(OCCCO)ccc2N1C(=O)c1ccccc1 fall in?
Result: B

Task: Looking at C=CCOC(=O)[C@@H]1[C@H]2C(=O)O[C@H](c3ccccc3)[C@H](c3ccccc3)N2[C@H](c2ccc(OCCOC(=O)[C@H]3C[C@H]4C(=O)N[C@@H](CCCC[N+](C)(C)C)C(=O)N4[C@H]3c3ccc(O)cc3)cc2)[C@@]12C(=O)Nc1ccc(I)cc12 , which class would you pick?
Result: C

Task: Band of C=C(COC)/C(=C/C[C@@H](OC(=O)c1ccncc1)c1cccc(OCCO)c1)c1cnc2ccccc2c1 ?
Result: C

Task: Could you tell me which band COc1ccc([Si](C)(C)[C@@H]2[C@@H](CC(=O)N3CCC[C@H]3CO)O[C@]3(C(=O)N(Cc4ccc(N5C(=O)c6cccc7cccc5c67)cc4)c4ccccc43)[C@H]2C)cc1 belongs to?
Result: C

Task: # classify by composite z-score band: C=CCOC(=O)[C@H]1[C@@H]2C(=O)O[C@@H](c3ccccc3)[C@@H](c3ccccc3)N2[C@@H](c2ccc(OCCOC(=O)[C@H]3C[C@H]4C(=O)N[C@@H](Cc5ccccc5)C(=O)N4[C@H]3c3cccc(OCCO)c3)cc2)[C@]12C(=O)Nc1ccc(I)cc12
Result: C

Task: Would you mind sorting CO[C@H]1O[C@H](CO)[C@@H](OC(=O)c2ccc(Br)cc2)[C@@H]2OC(=O)[C@@H](Cc3ccc4ccccc4c3)C/C=C/C[C@H](Cc3ccc4ccccc4c3)C(=O)O[C@@H]12 into the appropriate category?
Result: A

Task: Record COCCCNC(=O)[C@]1(Cc2ccccc2N=[N+]=[N-])N=C(c2ccc(OCCCO)cc2)O[C@@H]1c1ccccc1N=[N+]=[N-] — which class?
Result: B

Task: Looking at CC(C)CN1C(=O)[C@@]2(c3ccc([N+](=O)[O-])cc3)CC(=O)N(CC34CC5CC(CC(C5)C3)C4)[C@@H]2c2ccc(CO)cc21 , which class would you pick?
Result: A

###

- SYSTEM: Alpha-bungarotoxin (Bungarus multicinctus) (UniProt P60615)
- Sequence (P60615 whole entry, looked up): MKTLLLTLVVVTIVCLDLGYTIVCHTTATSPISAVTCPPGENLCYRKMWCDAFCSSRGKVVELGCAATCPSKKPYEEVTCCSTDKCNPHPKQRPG
- ASSAY COMMENT: alpha-bungarotoxin binders on microarray, profiling panel, artefact control for SMM control protein annotation, biochemical, small-molecule microarray, Alexa647 label, 635/667 nm fluorescence (AID 1117)
- MEASUREMENT CONTEXT: alpha-BTX-A647 binding fluorescence, higher = more signal
ENDPOINT NAME: composite z-score
Keep it simple and answer with nothing but the number.

Recorded results for 3 molecules are shown here.
Task: Dear colleague, please send me the reported composite z-score for C=CCOC(=O)[C@@H]1[C@H]2C(=O)O[C@H](c3ccccc3)[C@H](c3ccccc3)N2[C@H](c2ccc(OCCOC(=O)[C@H]3C[C@H]4C(=O)N[C@@H](CCCC[N+](C)(C)C)C(=O)N4[C@H]3c3ccc(O)cc3)cc2)[C@@]12C(=O)Nc1ccc(I)cc12 when you can.
Result: 1.89

Task: Quote composite z-score reported for C=C(C(=O)CC[C@H](OC(=O)c1cccnc1)c1ccc(CO)o1)C(C)C please.
Result: 1.19

Task: Please indicate composite z-score recorded for CC(C)C(CO)N1C(=O)[C@]2(C)C3C(=O)OCCC/C=C\[C@H]3OC23C=CCN(c2ccc(Cl)cc2)C(=O)[C@@H]13 (stereo partly specified)
Result: -0.28

Further cases:
Task: Respond only with composite z-score recorded for CCOC(=O)C[C@H]1[C@H](OC(=O)Cc2ccc3c(c2)OCO3)[C@@H](NC(=O)C2CCCCC2)c2cc(OCCCO)ccc2N1C(=O)c1ccc2ccccc2n1
Result: 0.663

Task: Assign composite z-score to the following record: COCCCNC(=O)[C@@]1(Sc2ccc(C)cc2)CC(=O)N(Cc2cc(C(F)(F)F)cc(C(F)(F)F)c2)[C@@H]1c1ccc(CO)cc1
Result: 2.13

Task: Please list composite z-score recorded for the molecule CCCCC(=C=CC[C@@H](O)c1ccc(OCCO)cc1)C[C@@H](O)COCc1ccccc1
Result: -0.324

###

- ASSAY COMMENT: Plasmodium falciparum growth inhibition, primary screen, strain 3D7, DAPI fluorescence, 100 nL (AID 1184);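 note: parasites grown inside human red blood cells in medium with human serum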
- MEASUREMENT CONTEXT: P. falciparum 3D7 growth, 3 d, higher = more signal
ENDPOINT NAME: z-score
Field format: numeric only.

Task: Determine its reported z-score: C=CCN1C(=O)[C@@]2(O[C@@H](CCO)[C@H]([Si](C)(C)c3ccc(OC)cc3)[C@H]2C)c2cc(N3C(=O)c4ccccc4Oc4ccccc43)ccc21
Result: -2.52

Task: Quote z-score reported for O=C1NC(=O)C2C1C=CC(C(O)c1ccc3c(c1)OCO3)N2Nc1ccccn1 (configuration not stated) please.
Result: 0.453

Task: Answer with the recorded z-score for the molecule listed here: C=CCC(OC(C)=O)[C@@H]1[C@@H](N(Cc2ccc(-c3ccccc3)cc2)C(=O)c2cccc3ccccc23)c2cc(OCCCO)ccc2N1C(=O)Cc1ccc2ccccc2c1 (some centres not stated)
Result: -0.171

Task: Identify measured z-score associated with C=C(/C=C/CNS(=O)(=O)c1ccc(C)cc1)[C@H](O)[C@H]1CCCN1S(=O)(=O)c1ccccc1[N+](=O)[O-]
Result: -2.04

Task: Could you please provide reported z-score for C=C(CCCC)/C(=C/C[C@@H](OC(=O)c1ccncc1)c1cccc(OCCO)c1)c1cnc2ccccc2c1 ? Thanks!
Result: -3.03

Task: Tell me z-score reported for CN(C)C(=O)[C@@]1(Cc2ccccc2N=[N+]=[N-])COC(c2ccc(OCCCO)cc2)=N1
Result: -1.8

Next molecule, please.
Task: Return z-score for the following molecule: COc1c(C)cc(-c2cc3c(c(Cc4ccccc4)n2)[Si](C(C)C)(C(C)C)OC3)cc1C
Result: -2.74

###

- ASSAY COMMENT: basal S. cerevisiae growth modulation, no modifier, primary screen, OD600, strain BY4716, 24 h, basal condition (AID 1173)
- MEASUREMENT CONTEXT: OD600, 24 h, higher = more signal, called active from +8 up or from −8 down
Assign satisfied to entries whose z-score meets or exceeds 0.2; assign not satisfied to the rest.

Before answering, review these 3 worked examples.
Task: Determine whether this molecule has z-score no lower than 0.2: CC=CC(O)C1C=CC2C(=O)N(c3ccccc3)C(=O)C2N1Nc1ccc([N+](=O)[O-])cc1 (stereo not drawn)
Result: not satisfied

Task: Item COCCOC(=O)N1C(=O)[C@@]2(c3cc(C#CC4=CCCCC4)ccc31)[C@H](c1ccc(O)cc1)N1[C@H](c3ccccc3)[C@H](c3ccccc3)OC(=O)[C@H]1[C@@H]2C(=O)Nc1nc2ccccc2s1 with z-score of 0.2 or above?
Result: not satisfied

Task: Kindly determine if z-score recorded for C=CCNC(=O)[C@H]1[C@@H]2C(=O)O[C@@H](c3ccccc3)[C@@H](c3ccccc3)N2[C@@H](c2ccccc2OCCO)[C@]12C(=O)N(C(=O)OCCOC)c1ccc(C#CC3=CCCCC3)cc12 is above or exactly 0.2.
Result: satisfied

Further cases:
Task: Entry COC(=O)C[C@H]1O[C@]2(C(=O)N(C)c3ccccc32)[C@@H](C)[C@@H]1[Si](C)(C)c1ccc(C)cc1 : is its z-score no less than 0.2?
Result: not satisfied

Task: API: above_or_equal(metric=z-score, cutoff=0.2) for item O=C1NC(=O)C2C1C=CC(C(O)c1ccc(Br)cc1)N2Nc1ccccn1 (stereo not drawn)
Result: not satisfied

Task: Record COC(=O)[C@@]1(Cc2ccc(OC)cc2)[C@H]2c3cc(C(=O)N4CCCC4)n(CCc4cc5ccccc5[nH]4)c3C[C@H]2CN1C(=O)c1ccccc1 ; criterion: z-score no lower than 0.2. Met?
Result: satisfied

Task: Would you say COc1ccc([Si](C)(C)[C@@H]2[C@@H](CCO)O[C@]3(C(=O)N(Cc4cccc(N5C(=O)c6cccc7cccc5c67)c4)c4ccccc43)[C@H]2C)cc1 shows z-score at minimum 0.2?
Result: satisfied

Task: Could you verify whether the entry COc1ccc([Si](C)(C)[C@@H]2[C@@H](CCn3cc([C@H](O)c4ccccc4)nn3)O[C@]3(C(=O)N(Cc4ccc(N5CCOC5=O)cc4)c4ccccc43)[C@H]2C)cc1 shows z-score of no less than 0.2?
Result: not satisfied
